- Assay text: Rat pharmacokinetic (PK) assay
- Format: in vivo, Sprague-Dawley rat
- Condition parameters: male, Sprague-Dawley, plasma; Rat iv, dose 5 mg/kg (table)
Readout kind: half-life (h)
Please reply with the bare figure in h and do not write the unit itself.

Inquiry: Query (compound): `O=C(O)c1ccc(C2(NC(=O)c3c(Cl)sc4ccn(Cc5ccc(C(F)(F)F)cc5)c34)CC2)cc1` ; field requested: half-life
Reply text: 9.47

====

- Assay text: Rat pharmacokinetic (PK) assay
- Format: in vivo, Sprague-Dawley rat
- Condition parameters: male, Sprague-Dawley, plasma; Rat po, dose 10 mg/kg (table)
Readout kind: half-life
Write the numeric value and append its unit.

Inquiry: Query (compound): `O=C(O)c1ccc(C2(NC(=O)c3c(Cl)sc4ccn(Cc5ccc(C(F)(F)F)cc5)c34)CC2)cc1` ; field requested: half-life
Reply text: 8.97 h

Recorded values, source patent US20260070918A1.
